Source of measurements: patent US10494375B2

Quick list: MIC per entry.
Tested on: E. faecium CCUG 37832
measurement.description: MIC determination by standardized microdilution test in Mueller-Hinton broth
Type: cell-based, Enterococcus faecium
experimental.setup: footnote of Table 1: resistance profile of Enterococcus faecium CCUG37832; read-out: Mic
Where a SMILES comes first, the peptide text is derived from it. Bridges are numbered along the chain shown (N, C = ends). [ ]: non-standard residue; d: D form. The star is where a group is joined. Ileψ(thiazoline)Cys = CC[C@H](C)[C@H](N)C1=N[C@H](C(=O)*)CS1; dOrn = NCCC[C@@H](N)C(=O)O
readout.kind: MIC

CCC[C@@H]1C[C@@H](C(=O)N[C@@H]([C@H]2O[C@H](SC)[C@H](O)[C@@H](O)[C@H]2O)[C@@H](C)O)N(C)C1 :: > 10 µg/mL
CN[C@@H]1[C@H](O)[C@H](NC)[C@H]2O[C@@]3(O)C(=O)C[C@@H](C)O[C@H]3O[C@@H]2[C@H]1O :: > 8 µg/mL
N[C@@H]1CON=C1O :: > 8 µg/mL
CC[C@H](C)[C@H](N)C1=N[C@H](C(=O)N[C@@H](CC(C)C)C(=O)N[C@H](CCC(=O)O)C(=O)N[C@H](C(=O)N[C@H]2CCCCNC(=O)[C@H](CC(N)=O)NC(=O)[C@@H](CC(=O)O)NC(=O)[C@H](Cc3cnc[nH]3)NC(=O)[C@@H](Cc3ccccc3)NC(=O)[C@H]([C@@H](C)CC)NC(=O)[C@@H](CCCN)NC2=O)[C@@H](C)CC)CS1 [Bacitracin] ({Ileψ(thiazoline)Cys}-L[dE]IK[dOrn]I[dF]H[dD]N; lactam 4-C) :: > 8 µg/mL
CC1(C)S[C@@H]2[C@H](NC(=O)[C@H](N)c3ccccc3)C(=O)N2[C@H]1C(=O)O :: 20 µg/mL

* * *

Quick list: MIC per entry.
System: E. faecium CCUG 37832
measurement.description: MIC determination by standardized microdilution test in Mueller-Hinton broth
Type: cell-based, Enterococcus faecium
experimental.setup: footnote of Table 1: resistance profile of Enterococcus faecium CCUG37832; read-out: Mic
Protocol: MBL-AB01 was tested against a panel of Gram-negative and Gram-positive pathogens. MICs for all Gram-positive and Gram-negative bacterial strains were determined by standardized microdilution tests using Mueller-Hinton broth (Acumedia). Bacterial inoculums containing 5×10^5 CFU/ml were incubated for 19 h at 35° C. in the presence of different antibiotic concentrations according to Clinical and Laboratory Standards Institute protocols. […]
readout.kind: MIC

CN[C@@H]1[C@@H](O[C@H]2O[C@H](CO)[C@@H](N)[C@H](O)[C@H]2O)OC2C[C@@H](N)[C@@H](O[C@H]3[C@H](O)[C@@H](O)[C@H](N)C[C@@H]3N)OC2[C@@H]1O (stereo partly drawn) [Apramycin] :: > 20 µg/mL
CN(C)[C@@H]1C(O)=C(C(N)=O)C(=O)[C@@]2(O)C(O)=C3C(=O)c4c(O)ccc(Cl)c4[C@@](C)(O)[C@H]3C[C@@H]12 [Chlortetracycline] :: > 10 µg/mL
CC[C@H]1OC(=O)[C@H](C)[C@@H](O[C@H]2C[C@@](C)(OC)[C@@H](O)[C@H](C)O2)[C@H](C)[C@@H](O[C@@H]2O[C@H](C)C[C@H](N(C)C)[C@H]2O)[C@](C)(O)C[C@@H](C)C(=O)[C@H](C)[C@@H](O)[C@]1(C)O [erythromycin] :: > 20 µg/mL
